MIC values recorded for S. aureus (ATCC 292213)

- Compound: "CCCCCOCC(O)[C@H]1OCC(O)C1O (stereo partly shown) [Entry 1, (1,4)-sorbitan pentyl ethers]"
  MIC: "> 4 mM"
- Compound: "CCCCCCCCCCOCC(O)[C@H]1OCC(O)C1O (stereo partly shown) [Entry 4, Decyl-1,4-sorbitan]"
  MIC: "> 4 mM"
- Compound: "CCCCCCOCC(O)[C@H]1OCC(O)C1O (stereo partly shown) [Entry 2]"
  MIC: "> 4 mM"
- Compound: "CCCCCCCCOCC(O)[C@H]1OCC(O)C1O (stereo partly shown) [Entry 3, Octyl-1,4-sorbitan]"
  MIC: "> 4 mM"
